Data provenance: paper PMC9482650

target: Inadl_5, Q8NI35; test: holdup assay; parameters: key: below the threshold = too weak to quantify, mostly under pKd 3.1 to 4; details: plain residues with an end cap or a label only (N-terminal biotin on a linker: ttds)
Sequence (Q8NI35 673-780): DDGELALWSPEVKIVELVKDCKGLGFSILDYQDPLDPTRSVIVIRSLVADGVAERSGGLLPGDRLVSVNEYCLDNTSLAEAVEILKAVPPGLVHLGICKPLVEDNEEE
endpoint-name: pKd

binder | result
DPRNTQTSQI [ABRAXAS2, Q15018] | below the threshold
RTRQRNETQV [HPV51-E6, P26554] | 3.4
LCALPKVTTV [AGMAT, Q9BSE5] | below the threshold
GGPKEEESPV [SLC16A1, P53985] | below the threshold
